Source: PubChem BioAssay

- STUDY TARGET: Albumin (Bos taurus) (UniProt P02769)
- Sequence (P02769 whole entry, looked up): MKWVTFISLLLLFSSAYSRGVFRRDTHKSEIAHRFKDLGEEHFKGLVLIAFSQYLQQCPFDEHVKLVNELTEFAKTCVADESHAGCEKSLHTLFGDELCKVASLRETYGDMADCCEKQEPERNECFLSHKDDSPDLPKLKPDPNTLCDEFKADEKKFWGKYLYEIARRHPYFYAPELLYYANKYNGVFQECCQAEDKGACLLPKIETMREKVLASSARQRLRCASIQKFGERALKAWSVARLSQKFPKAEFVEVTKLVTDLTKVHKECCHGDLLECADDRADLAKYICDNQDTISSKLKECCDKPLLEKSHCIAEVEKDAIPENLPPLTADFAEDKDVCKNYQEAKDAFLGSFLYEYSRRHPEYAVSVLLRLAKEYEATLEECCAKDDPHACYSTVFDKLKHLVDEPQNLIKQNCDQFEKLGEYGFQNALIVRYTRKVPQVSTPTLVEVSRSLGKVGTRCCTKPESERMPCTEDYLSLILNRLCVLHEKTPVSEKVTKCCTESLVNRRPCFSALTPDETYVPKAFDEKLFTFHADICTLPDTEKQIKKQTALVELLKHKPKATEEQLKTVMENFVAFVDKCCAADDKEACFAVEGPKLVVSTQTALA
- ASSAY COMMENT: bovine serum albumin binders on microarray, profiling panel, artefact control for SMM control protein annotation, biochemical, small-molecule microarray, Alexa647 label, 635/667 nm fluorescence (AID 1118);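 note: score merges 667 nm emission intensity and signal-to-noise per printed compound spot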
- SETTINGS: BSA-A647 binding, fluorescence 635 nm, higher = more signal
Exercise: for every item that follows, state its recorded composite z-score.
The response must contain the number and no unit.

Given the entry CC(C)NC(=O)[C@@]1(c2ccc([N+](=O)[O-])cc2)CC(=O)N(CC23CC4CC(CC(C4)C2)C3)[C@@H]1c1ccc(CO)cc1I , report its measured composite z-score.
-0.0212

Now give it for CC(=O)OC[C@H]1O[C@H](CCON=C[C@@H](C)[C@H](OCc2ccccc2)C(C)C)C=C[C@@H]1OC(C)=O too.
0.0841

Now give it for CC(C)N1CC=CC23O[C@@H]4C=CCCOC(=O)C4[C@H]2C(=O)N(CCCCCCO)[C@@H]3C1=O (stereo not given in full) too.
-0.176

Now give it for O=C1CCCC2OC12C(O)CCc1ccccc1 (stereo not given) too.
-0.0592

Now give it for O=C1NC(=O)C2C1C=CC(C(O)Cc1ccccc1)N2Nc1ccccn1 (stereo not given) too.
0.461

Now give it for C=CC[C@@H]1C=C[C@H](ON=C2c3cc(OC)ccc3O[C@H](c3cccc(OC)c3)[C@H]2O)[C@@H](CO)O1 too.
0.764

Now give it for COc1ccc(-c2ccc3c(n2)CCCN3CC(O)CN2CCCc3nc(C)c(C)cc32)cc1 (stereo not given) too.
0.683

Now give it for O=C1[C@H]2[C@H]3[C@H](O)[C@H](O)CC(=NO[C@@H]4O[C@H](CO)[C@@H](O)[C@H](O)[C@H]4O)[C@@H]3CC[C@H]2C(=O)N1Cc1ccccc1 too.
-0.0679

Now give it for CC1CC/C=C\[C@H]2OC34C=CCN(C(C)C)C(=O)[C@H]3N(CCCO)C(=O)[C@@H]4C2C(=O)O1 (stereo not given in full) too.
0.468

Now give it for COC(=O)[C@H](C)NC(=O)CCC1CC(OC(=O)NCc2ccc3c(c2)OCO3)CC2(CCCC(COC(=O)NCCOc3ccccc3)O2)O1 (stereo not given in full) too.
0.469

Now give it for CCOC(=O)[C@H](Cc1ccccc1)NC(=O)CCC1CC(OC(=O)NCc2ccc3c(c2)OCO3)CC2(CCCC(COC(=O)NCc3cccc(C(F)(F)F)c3)O2)O1 (stereo not given in full) too.
-0.0075

Now give it for CCCNC(=O)[C@@H]1c2ccccc2C(=O)N(Cc2ccccc2Cl)[C@H]1c1ccc(CO)cc1 too.
0.414

Now give it for CCCCCCc1nc(CCCc2cc3c(c(CCCCCC)n2)[Si](C(C)C)(C(C)C)O[C@H]3c2ccccc2)cc2c1[Si](C(C)C)(C(C)C)O[C@H]2c1ccccc1 too.
-0.27

Now give it for CC(C)=CCCC(C)=CCON=C1C[C@@H](O)[C@@H](O)[C@@H]2[C@@H]3C(=O)N(C[C@@H]4CCCO4)C(=O)[C@@H]3CC[C@@H]12 too.
-0.506

Now give it for CC(C)[C@@H](OCc1ccccc1)[C@H](C)C=NO[C@H](C)c1cn([C@H](CO)Cc2ccccc2)nn1 too.
0.0792
